Test system: Mycobacterium tuberculosis Erdman (autoluminescent)
MEASUREMENT_NOTES: FIC90 (Loewe) at 90% inhibition (log2); higher = more antagonistic
CONDITION_NOTES: in vitro model: cholesterol-high 0.2 mM; time point: terminal (~4-5 doublings, model-specific)
I would appreciate it if you labelled entries yes when FIC90 is 0.7 or higher, otherwise no.

stdin: Determine whether this molecule has FIC90 no lower than 0.7: O=[N+]([O-])c1cn2c(n1)OC[C@@H](OCc1ccc(OC(F)(F)F)cc1)C2 [pretomanid] + CO[C@H]1/C=C/O[C@@]2(C)Oc3c(C)c(O)c4c(O)c(c(/C=N/N5CCN(C6CCCC6)CC5)c(O)c4c3C2=O)NC(=O)/C(C)=C\C=C\[C@H](C)[C@H](O)[C@@H](C)[C@@H](O)[C@@H](C)[C@H](OC(C)=O)[C@@H]1C [rifapentine]
stdout: yes

stdin: Would you say COc1nc2ccc(Br)cc2cc1[C@@H](c1ccccc1)[C@@](O)(CCN(C)C)c1cccc2ccccc12 [bedaquiline] + NC(=O)c1cnccn1 [pyrazinamide] shows FIC90 at minimum 0.7?
stdout: no

stdin: Threshold query (FIC90 >= 0.7) on CC(=O)NC[C@H]1CN(c2ccc(N3CCOCC3)c(F)c2)C(=O)O1 [linezolid] + NC(=O)c1cnccn1 [pyrazinamide]
stdout: no

stdin: Reported FIC90 at or above 0.7? NNC(=O)c1ccncc1 [isoniazid] + CO[C@H]1/C=C/O[C@@]2(C)Oc3c(C)c(O)c4c(O)c(c(/C=N/N5CCN(C)CC5)c(O)c4c3C2=O)NC(=O)/C(C)=C\C=C\[C@H](C)[C@H](O)[C@@H](C)[C@@H](O)[C@@H](C)[C@H](OC(C)=O)[C@@H]1C [rifampicin]
stdout: no

stdin: Kindly determine if FIC90 recorded for NC(=O)c1cnccn1 [pyrazinamide] + CO[C@H]1/C=C/O[C@@]2(C)Oc3c(C)c(O)c4c(O)c(c(/C=N/N5CCN(C6CCCC6)CC5)c(O)c4c3C2=O)NC(=O)/C(C)=C\C=C\[C@H](C)[C@H](O)[C@@H](C)[C@@H](O)[C@@H](C)[C@H](OC(C)=O)[C@@H]1C is above or exactly 0.7.
stdout: yes

stdin: Say whether O=[N+]([O-])c1cn2c(n1)OC[C@@H](OCc1ccc(OC(F)(F)F)cc1)C2 [pretomanid] + NC(=O)c1cnccn1 [pyrazinamide] shows FIC90 of 0.7 or more.
stdout: no

stdin: Could you please find out whether COc1nc2ccc(Br)cc2cc1[C@@H](c1ccccc1)[C@@](O)(CCN(C)C)c1cccc2ccccc12 [bedaquiline] + CC[C@@H](CO)NCCN[C@@H](CC)CO [ethambutol] has FIC90 that meets 0.7 or exceeds it?
stdout: yes

stdin: Please check the record CC[C@@H](CO)NCCN[C@@H](CC)CO [ethambutol] + COc1c(N2C[C@@H]3CCCN[C@@H]3C2)c(F)cc2c(=O)c(C(=O)O)cn(C3CC3)c12 [moxifloxacin] and state if its FIC90 is at or above 0.7.
stdout: no

stdin: Confirm if FIC90 reported for the molecule NNC(=O)c1ccncc1 [isoniazid] + NC(=O)c1cnccn1 [pyrazinamide] is 0.7 or above.
stdout: no

stdin: Answer whether FIC90 of COc1c(N2C[C@@H]3CCCN[C@@H]3C2)c(F)cc2c(=O)c(C(=O)O)cn(C3CC3)c12 [moxifloxacin] + CO[C@H]1/C=C/O[C@@]2(C)Oc3c(C)c(O)c4c(O)c(c(/C=N/N5CCN(C6CCCC6)CC5)c(O)c4c3C2=O)NC(=O)/C(C)=C\C=C\[C@H](C)[C@H](O)[C@@H](C)[C@@H](O)[C@@H](C)[C@H](OC(C)=O)[C@@H]1C is greater than or equal to 0.7.
stdout: yes

stdin: Decide: is the reported value of FIC90 for COc1nc2ccc(Br)cc2cc1[C@@H](c1ccccc1)[C@@](O)(CCN(C)C)c1cccc2ccccc12 [bedaquiline] + NNC(=O)c1ccncc1 [isoniazid] equal to or greater than 0.7?
stdout: no

stdin: Quick check, FIC90 >= 0.7? CC[C@@H](CO)NCCN[C@@H](CC)CO [ethambutol] + O=[N+]([O-])c1cn2c(n1)OC[C@@H](OCc1ccc(OC(F)(F)F)cc1)C2 [pretomanid]
stdout: yes

stdin: Check the entry CC[C@@H](CO)NCCN[C@@H](CC)CO [ethambutol] + NNC(=O)c1ccncc1 [isoniazid] : does FIC90 equal or exceed 0.7?
stdout: no

stdin: Is FIC90 at least 0.7? Consider CC(C)/N=c1\cc2n(-c3ccc(Cl)cc3)c3ccccc3nc-2cc1Nc1ccc(Cl)cc1 [clofazimine] + COc1c(N2C[C@@H]3CCCN[C@@H]3C2)c(F)cc2c(=O)c(C(=O)O)cn(C3CC3)c12
stdout: no
